- Tested target: LasR (Pseudomonas aeruginosa, UniProt P25084)
- Sequence (P25084 whole entry): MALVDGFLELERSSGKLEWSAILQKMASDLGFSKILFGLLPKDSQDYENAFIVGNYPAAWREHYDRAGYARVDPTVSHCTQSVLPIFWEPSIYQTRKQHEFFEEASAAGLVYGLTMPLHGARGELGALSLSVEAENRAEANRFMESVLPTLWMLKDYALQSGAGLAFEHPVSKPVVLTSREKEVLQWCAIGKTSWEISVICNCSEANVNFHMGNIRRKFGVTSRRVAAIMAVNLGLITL
- Assay: LasR agonism, E. coli JLD271
- Format: cell-based
- Run conditions: ratio of EC50 to that of OdDHL, LasR reporter
Collected Loss in potency (EC50) relative to OdDHL (1) in LasR values appear next to each entry.
Parameter measured: Loss in potency (EC50) relative to OdDHL (1) in LasR (fold)

- Smiles input: "CCCCCCCCCC(=O)CC(=O)NC1CCCC1"
  Reported: 100
- Smiles input: "CCCCCCCCCC(=O)CC(=O)N[C@H]1CCOC1"
  Reported: 600

---

Collected Loss in potency (EC50) relative to OdDHL (1) in LasR values appear next to each entry.
- Tested target: LasR (Pseudomonas aeruginosa)
- Assay: LasR agonism, E. coli JLD271
- Format: cell-based
- Run conditions: ratio of EC50 to that of OdDHL, LasR reporter
Parameter measured: Loss in potency (EC50) relative to OdDHL (1) in LasR

- Compound: "CCCCCCCCCC(=O)CC(=O)N[C@H]1CCNC1=O [Compound 4]"
  Tested target: "LasR (Pseudomonas aeruginosa)"
  Reported: "10–20 fold"
- Compound: "CCCCCCCCCC(=O)CC(=O)N[C@H]1CCCC1=O [Compound 5]"
  Tested target: "LasR (Pseudomonas aeruginosa)"
  Reported: "10–20 fold"
- Compound: "CCCCCCCCCC(=O)CC(=O)N[C@H]1CCO[C@@H]1O [Compound 8]"
  Tested target: "LasR (Pseudomonas aeruginosa)"
  Reported: "~ 1200 fold"
